Target: Excitatory amino acid transporter 4 (Rattus norvegicus, UniProt O35921)
Sequence (O35921 whole entry): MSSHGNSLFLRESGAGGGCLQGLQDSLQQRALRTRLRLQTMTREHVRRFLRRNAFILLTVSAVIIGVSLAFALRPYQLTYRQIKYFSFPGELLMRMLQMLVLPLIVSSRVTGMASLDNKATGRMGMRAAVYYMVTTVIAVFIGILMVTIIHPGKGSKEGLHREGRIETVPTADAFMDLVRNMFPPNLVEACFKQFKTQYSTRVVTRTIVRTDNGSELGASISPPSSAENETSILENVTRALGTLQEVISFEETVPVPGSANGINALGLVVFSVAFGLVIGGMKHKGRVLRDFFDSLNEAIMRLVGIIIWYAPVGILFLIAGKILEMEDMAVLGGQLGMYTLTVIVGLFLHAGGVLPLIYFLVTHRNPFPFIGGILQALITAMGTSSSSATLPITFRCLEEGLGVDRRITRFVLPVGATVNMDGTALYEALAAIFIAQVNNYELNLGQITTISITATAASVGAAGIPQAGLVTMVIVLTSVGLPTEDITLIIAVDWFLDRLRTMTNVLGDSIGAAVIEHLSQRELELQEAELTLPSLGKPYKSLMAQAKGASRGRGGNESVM
Test: Inhibition of rat EAAT4 transfected in human tsA201 cells assessed as inhibition of [3H]-D-aspartate uptake incubated for 4 mins by TopCount scintillation counting analysis
observed.property: IC50 (µM)

{"molecule": "Cc1ccc(S(=O)(=O)n2cc(-c3ccc(C(F)(F)F)cc3)c3ccc(CO[C@H](C(=O)O)[C@H](N)C(=O)O)cc32)cc1", "recorded.result": 1.6}
{"molecule": "Cc1ccc(S(=O)(=O)n2ccc3ccc(CO[C@H](C(=O)O)[C@H](N)C(=O)O)cc32)cc1", "recorded.result": 9.5}
{"molecule": "NC(C(=O)O)C(OCc1ccccc1)C(=O)O (racemic)", "recorded.result": 3.9}
{"molecule": "N[C@@H](CCC(=O)O)C(=O)O", "recorded.result": 12}
{"molecule": "Cc1ccc(S(=O)(=O)n2cc(-c3ccccc3)c3ccc(CO[C@H](C(=O)O)[C@H](N)C(=O)O)cc32)cc1", "recorded.result": 6.1}
{"molecule": "Cc1ccc(S(=O)(=O)n2cc(-c3ccsc3)c3ccc(CO[C@H](C(=O)O)[C@H](N)C(=O)O)cc32)cc1", "recorded.result": 2.1}
